Assay Text: log P by HPLC/LC-MS on reversed-phase C18, formic acid method [b]
Format: physicochemical
Experimental Conditions: reversed-phase C18 HPLC column; pH 2.7, 0.1% aqueous formic acid and acetonitrile; read-out: logP (HCOOH)

>  <Compound>
Cc1cc(Cl)c(-n2cnc(C(F)(F)F)n2)cc1[S+]([O-])CC(F)F (centres unmarked)

>  <chromatographic logP>
2.54

$$$$
>  <Compound>
Cc1cc(Cl)c(-n2cnc(C(F)(F)F)n2)cc1[S+]([O-])CC(F)(F)C(F)(F)F (centres unmarked)

>  <chromatographic logP>
3.4

$$$$
>  <Compound>
Cc1cc(C)c([S+]([O-])CCC(F)(F)F)cc1-n1cnc(C(F)(F)F)n1 (centres unmarked)

>  <chromatographic logP>
2.86

$$$$
>  <Compound>
Cc1ccc(-n2cnc(C(F)(F)F)n2)c(C)c1

>  <chromatographic logP>
3.19

$$$$
>  <Compound>
Cc1cc(F)c(-n2cnc(C(F)(F)F)n2)cc1SCC#N

>  <chromatographic logP>
2.93

$$$$

----------
Known chromatographic logP of a selection of molecules
Assay Text: log P by HPLC on reversed-phase C18, phosphoric acid method [a]
Type: physicochemical
Experimental Conditions: reversed-phase C18 HPLC column; pH 2.3, 0.1% aqueous phosphoric acid and acetonitrile; read-out: logP (H3PO4)
Protocol: The log P values reported in the table above and in the preparation examples were determined in accordance with EEC Directive 79/831 Annex V.A8 by HPLC (High Performance Liquid Chromatography) on reversed-phase columns (C 18), with the following methods: ^[a] […] Calibration took place with unbranched alkan-2-ones (having 3 to 16 carbon atoms) of known log P values (log P values determined from the retention times by linear interpolation between two successive alkanones).

>  <Molecule>
Cc1cc(C)c([S+]([O-])CC(F)(F)C(F)(F)F)cc1-n1cnc(C(F)(F)F)n1 (stereo not shown) [I-A-10]

>  <chromatographic logP>
3.29

$$$$
>  <Molecule>
Cc1cc(C)c(-n2cnc(C(F)(F)F)n2)cc1SCC(F)(F)C(F)(F)F [I-A-4]

>  <chromatographic logP>
4.49

$$$$
>  <Molecule>
Cc1cc(C)c([S+]([O-])CC(F)(F)C(F)F)cc1-n1cnc(C(F)(F)F)n1 (stereo not shown) [I-A-5]

>  <chromatographic logP>
2.88

$$$$
>  <Molecule>
Cc1cc(C)c(-n2cnc(C(F)(F)F)n2)cc1SCC(F)(F)C(F)F [I-A-3]

>  <chromatographic logP>
3.98

$$$$

----------
Assay Text: log P by HPLC/LC-MS on reversed-phase C18, formic acid method [b]
Format: physicochemical
Experimental Conditions: reversed-phase C18 HPLC column; pH 2.7, 0.1% aqueous formic acid and acetonitrile; read-out: logP (HCOOH)
Known chromatographic logP of a selection of compounds
Quantity: chromatographic logP

>  <Compound>
Cc1cc(F)c(-n2cnc(C(F)(F)F)n2)cc1[S+]([O-])CC(F)(F)C(F)F (stereo not drawn) [I-A-18]

>  <Assay Value>
2.79

$$$$
>  <Compound>
Cc1cc(Cl)c(-n2cnc(C(F)(F)F)n2)cc1[S+]([O-])CC(F)(F)C(F)F (stereo not drawn) [I-A-23]

>  <Assay Value>
3.01

$$$$
>  <Compound>
Cc1cc(F)c(-n2cnc(C(F)(F)F)n2)cc1SCC(F)(F)C(F)(F)F [I-A-22]

>  <Assay Value>
4.4

$$$$
>  <Compound>
Cc1cc(Cl)c(-n2cnc(C(F)(F)F)n2)cc1[S+]([O-])CC#N (stereo not drawn) [I-A-11]

>  <Assay Value>
2.17

$$$$
>  <Compound>
Cc1cc(Cl)c(-n2cnc(C(F)(F)F)n2)cc1SCC(F)F [I-A-16]

>  <Assay Value>
3.75

$$$$
>  <Compound>
Cc1cc(C)c(-n2cnc(C(F)(F)F)n2)cc1SCC(F)F [I-A-1]

>  <Assay Value>
3.74

$$$$
>  <Compound>
Cc1cc(Cl)c(-n2cnc(C(F)(F)F)n2)cc1SCC(F)(F)C(F)(F)F [I-A-26]

>  <Assay Value>
4.57

$$$$
>  <Compound>
Cc1cc(F)c(-n2cnc(C(F)(F)F)n2)cc1SCC(F)F [I-A-6]

>  <Assay Value>
3.57

$$$$
>  <Compound>
Cc1cc(F)c(-n2cnc(C(F)(F)F)n2)cc1SCC(F)(F)C(F)F [I-A-24]

>  <Assay Value>
3.87

$$$$
>  <Compound>
Cc1cc(C)c(-n2cnc(C(F)(F)F)n2)cc1SCC#N [I-A-9]

>  <Assay Value>
3.08

$$$$
>  <Compound>
Cc1cc(C)c([S+]([O-])CC#N)cc1-n1cnc(C(F)(F)F)n1 (stereo not drawn) [I-A-8]

>  <Assay Value>
2.07

$$$$
>  <Compound>
Cc1cc(Cl)c(-n2cnc(C(F)(F)F)n2)cc1SCC(F)(F)C(F)F [I-A-17]

>  <Assay Value>
4.06

$$$$
>  <Compound>
Cc1cc(F)c(-n2cnc(C(F)(F)F)n2)cc1[S+]([O-])CC#N (stereo not drawn) [I-A-15]

>  <Assay Value>
1.99

$$$$
>  <Compound>
Cc1cc(C)c([S+]([O-])CC(F)F)cc1-n1cnc(C(F)(F)F)n1 (stereo not drawn) [I-A-2]

>  <Assay Value>
2.41

$$$$
>  <Compound>
Cc1cc(F)c(-n2cnc(C(F)(F)F)n2)cc1[S+]([O-])CC(F)(F)C(F)(F)F (stereo not drawn) [I-A-25]

>  <Assay Value>
3.22

$$$$
>  <Compound>
Cc1cc(Cl)c(-n2cnc(C(F)(F)F)n2)cc1SCC#N [I-A-12]

>  <Assay Value>
3.12

$$$$
>  <Compound>
Cc1cc(C)c(-n2cnc(C(F)(F)F)n2)cc1SCCC(F)(F)F [I-A-20]

>  <Assay Value>
4.32

$$$$
>  <Compound>
Cc1cc(F)c(-n2cnc(C(F)(F)F)n2)cc1[S+]([O-])CC(F)F (stereo not drawn) [I-A-19]

>  <Assay Value>
2.33

$$$$
